Kindly state SI for each of the entries shown.
System: RSV A strain A2
protocol-text: In vitro antiviral assay against RSV A strain A2 in HEp-2 cells (ELISA, virus titer)
Format: cell-based, respiratory syncytial virus
condition: selectivity index, CC50/IC50 ratio, RSV A2 / HEp-2
Give bare numbers.

>>> measured("CC1(C)[C@H]2CC[C@]1(C)[C@H](OC(=O)CCCN1CCN(c3ccccc3F)CC1)C2 [Compound 15c]")
2
>>> measured("CN1CCN(CC(=O)O[C@@H]2C[C@@H]3CC[C@@]2(C)C3(C)C)CC1")
19
>>> measured("CN(C)CCCC(=O)O[C@@H]1C[C@@H]2CC[C@@]1(C)C2(C)C")
10

Please state SI for every molecule in the list that follows.
1. CN1CCN(CCCC(=O)O[C@@H]2C[C@@H]3CC[C@@]2(C)C3(C)C)CC1
2. CC1(C)[C@H]2CC[C@]1(C)[C@H](OC(=O)CCN1CCN(Cc3ccccc3)CC1)C2 [Compound 11b]
3. CC1(C)[C@H]2CC[C@]1(C)[C@H](OC(=O)CN1CCN(c3ccccc3F)CC1)C2 [Compound 15a]
4. CC1(C)[C@H]2CC[C@]1(C)[C@H](OC(=O)CCCN1CCCCCC1)C2
5. CC1(C)[C@H]2CC[C@]1(C)[C@H](OC(=O)CCN1CCSCC1)C2 [Compound 12b]

A.
1: 39; 2: 1; 3: 10; 4: 5; 5: 1

Please state SI for every molecule in the list that follows.
1. CC1(C)[C@H]2CC[C@]1(C)[C@H](OC(=O)CCN1CCN(c3ccccc3F)CC1)C2 [Compound 15b]
2. CCN1CCN(CCCC(=O)O[C@@H]2C[C@@H]3CC[C@@]2(C)C3(C)C)CC1 [Compound 10c]
3. CC1(C)[C@H]2CC[C@]1(C)[C@H](OC(=O)CCN1CCN(c3ccccc3)CC1)C2 [Compound 14b]
4. CCN(CC)CCC(=O)O[C@@H]1C[C@@H]2CC[C@@]1(C)C2(C)C

A.
1: 2; 2: 21; 3: 45; 4: 4

----------
Tested on: RSV A strain A2
protocol-text: In vitro antiviral assay against RSV A strain A2 in HEp-2 cells (ELISA, virus titer)
Type: cell-based, respiratory syncytial virus
condition: selectivity index, CC50/IC50 ratio, RSV A2 / HEp-2
property-name: SI
One number for each entry.

>>> measured("CC1(C)[C@H]2CC[C@]1(C)[C@H](OC(=O)CCN1CCC(Cc3ccccc3)CC1)C2 [Compound 13b]")
2

Please state SI for every molecule in the list that follows.
1. CC1(C)[C@H]2CC[C@]1(C)[C@H](OC(=O)CN1CCC(Cc3ccccc3)CC1)C2 [Compound 13a]
2. CC1(C)[C@H]2CC[C@]1(C)[C@H](OC(=O)CCCN1CCN(c3ccccc3)CC1)C2 [Compound 14c]
3. CC1(C)[C@H]2CC[C@]1(C)[C@H](OC(=O)CN1CCCCCC1)C2

A.
5
2
1

----------
Kindly state CC50 at 24 h for each of the entries shown.
protocol-text: MTT cytotoxicity assay with non-infected HEp2 cells
condition: human
Answers are plain numbers, in µM.

Consider the reported CC50 at 24 h for these molecules:
>>> measured("CC1(C)[C@H]2CC[C@]1(C)[C@H](OC(=O)CN1CCC(Cc3ccccc3)CC1)C2 [Compound 13a]")
116
>>> measured("CC1(C)[C@H]2CC[C@]1(C)[C@H](OC(=O)CCCN1CCN(Cc3ccccc3)CC1)C2 [Compound 11c]")
82.8
>>> measured("CC1(C)[C@H]2CC[C@]1(C)[C@H](OC(=O)CCCN1CCCCCC1)C2 [Compound 8c]")
159

Q. Look up and state reported CC50 at 24 h for CC1CCN(CCC(=O)O[C@@H]2C[C@@H]3CC[C@@]2(C)C3(C)C)CC1 [Compound 7b]
A. 159

----------
protocol-text: MTT cytotoxicity assay with non-infected HEp2 cells
condition: human
Kindly state CC50 at 24 h for each of the entries shown.
Numbers only, in µM.

>>> measured("CC1(C)[C@H]2CC[C@]1(C)[C@H](OC(=O)CN1CCCCC1)C2")
129
>>> measured("CC1(C)[C@H]2CC[C@]1(C)[C@H](OC(=O)CCCN1CCSCC1)C2 [Compound 12c]")
56.5
>>> measured("CC1(C)[C@H]2CC[C@]1(C)[C@H](OC(=O)CCN1CCN(Cc3ccccc3)CC1)C2 [Compound 11b]")
49.4
>>> measured("CN(C)CC(=O)O[C@@H]1C[C@@H]2CC[C@@]1(C)C2(C)C")
497

Please state CC50 at 24 h for every molecule in the list that follows.
1. CC1CCN(CCCC(=O)O[C@@H]2C[C@@H]3CC[C@@]2(C)C3(C)C)CC1
2. CN(C)CCCC(=O)O[C@@H]1C[C@@H]2CC[C@@]1(C)C2(C)C

A.
[59.1, 228]

Please state CC50 at 24 h for every molecule in the list that follows.
1. CCN(CC)CCC(=O)O[C@@H]1C[C@@H]2CC[C@@]1(C)C2(C)C
2. CC1(C)[C@H]2CC[C@]1(C)[C@H](OC(=O)CCN1CCOCC1)C2

A.
391
127

----------
Kindly state CC50 at 24 h for each of the entries shown.
protocol-text: MTT cytotoxicity assay with non-infected HEp2 cells
condition: human
Give bare numbers, in µM.

Consider the reported CC50 at 24 h for these compounds:
>>> measured("CC1(C)[C@H]2CC[C@]1(C)[C@H](OC(=O)CN1CCN(Cc3ccccc3)CC1)C2 [Compound 11a]")
51.3
>>> measured("CC1(C)[C@H]2CC[C@]1(C)[C@H](OC(=O)CCN1CCCCC1)C2")
326

Okay, next one:
Q. Look up and state reported CC50 at 24 h for CC1(C)[C@H]2CC[C@]1(C)[C@H](OC(=O)CCN1CCC(Cc3ccccc3)CC1)C2 [Compound 13b]
A. 25.5

----------
protocol-text: MTT cytotoxicity assay with non-infected HEp2 cells
condition: human
property-name: CC50 at 24 h (µM)
Numbers only, in µM.

>>> measured("CCN(CC)CC(=O)O[C@@H]1C[C@@H]2CC[C@@]1(C)C2(C)C [Compound 4a]")
669
>>> measured("CC1(C)[C@H]2CC[C@]1(C)[C@H](OC(=O)CN1CCN(c3ccccc3)CC1)C2 [Compound 14a]")
26.4
>>> measured("CC1(C)[C@H]2CC[C@]1(C)[C@H](OC(=O)CCN1CCN(c3ccccc3F)CC1)C2 [Compound 15b]")
20.1
>>> measured("CC1(C)[C@H]2CC[C@]1(C)[C@H](OC(=O)CCN1CCN(c3ccccc3)CC1)C2 [Compound 14b]")
366
>>> measured("CC1(C)[C@H]2CC[C@]1(C)[C@H](OC(=O)CCCN1CCCCC1)C2 [Compound 6c]")
117

Please state CC50 at 24 h for every compound in the list that follows.
1. CCN1CCN(CCCC(=O)O[C@@H]2C[C@@H]3CC[C@@]2(C)C3(C)C)CC1 [Compound 10c]
2. CC1(C)[C@H]2CC[C@]1(C)[C@H](OC(=O)CN1CCSCC1)C2 [Compound 12a]
3. CC1(C)[C@H]2CC[C@]1(C)[C@H](OC(=O)CCN1CCSCC1)C2 [Compound 12b]

A.
208
126
86

----------
Kindly state CC50 at 24 h for each of the entries shown.
protocol-text: MTT cytotoxicity assay with non-infected HEp2 cells
condition: human
Answers are plain numbers, in µM.

>>> measured("CC1CCN(CC(=O)O[C@@H]2C[C@@H]3CC[C@@]2(C)C3(C)C)CC1")
399

Please state CC50 at 24 h for every compound in the list that follows.
1. CCN1CCN(CC(=O)O[C@@H]2C[C@@H]3CC[C@@]2(C)C3(C)C)CC1 [Compound 10a]
2. CC1(C)[C@H]2CC[C@]1(C)[C@H](OC(=O)CCN1CCCCCC1)C2
3. CC1(C)[C@H]2CC[C@]1(C)[C@H](OC(=O)CN1CCCCCC1)C2
4. CC1(C)[C@H]2CC[C@]1(C)[C@H](OC(=O)CN1CCN(c3ccccc3F)CC1)C2 [Compound 15a]
5. CN1CCN(CCCC(=O)O[C@@H]2C[C@@H]3CC[C@@]2(C)C3(C)C)CC1
6. CCN(CC)CCCC(=O)O[C@@H]1C[C@@H]2CC[C@@]1(C)C2(C)C

A.
[217, 345, 85.2, 27.5, 198, 152]

Q. Look up and state reported CC50 at 24 h for CC1(C)[C@H]2CC[C@]1(C)[C@H](OC(=O)CCCN1CCN(c3ccccc3)CC1)C2 [Compound 14c]
A. 23.9

----------
Kindly state CC50 at 24 h for each of the entries shown.
protocol-text: MTT cytotoxicity assay with non-infected HEp2 cells
condition: human
Give bare numbers, in µM.

Consider the reported CC50 at 24 h for these compounds:
>>> measured("CCN1CCN(CCC(=O)O[C@@H]2C[C@@H]3CC[C@@]2(C)C3(C)C)CC1 [Compound 10b]")
117
>>> measured("CC1(C)[C@H]2CC[C@]1(C)[C@H](OC(=O)CCCN1CCC(Cc3ccccc3)CC1)C2 [Compound 13c]")
40.2
>>> measured("CN(C)CCC(=O)O[C@@H]1C[C@@H]2CC[C@@]1(C)C2(C)C")
983
>>> measured("CC1(C)[C@H]2CC[C@]1(C)[C@H](OC(=O)CN1CCOCC1)C2")
413
>>> measured("CC1(C)[C@H]2CC[C@]1(C)[C@H](OC(=O)CCCN1CCOCC1)C2")
307

Please state CC50 at 24 h for every compound in the list that follows.
1. CN1CCN(CCC(=O)O[C@@H]2C[C@@H]3CC[C@@]2(C)C3(C)C)CC1
2. CC1(C)[C@H]2CC[C@]1(C)[C@H](OC(=O)CCCN1CCN(c3ccccc3F)CC1)C2 [Compound 15c]
3. CN1CCN(CC(=O)O[C@@H]2C[C@@H]3CC[C@@]2(C)C3(C)C)CC1

A.
169
27.8
267
